Values were extracted from ChEMBL document CHEMBL1287791.

# MEASUREMENT_TARGET: NAD(P)H dehydrogenase [quinone] 1 (Homo sapiens)
# Sequence (P15559 whole entry): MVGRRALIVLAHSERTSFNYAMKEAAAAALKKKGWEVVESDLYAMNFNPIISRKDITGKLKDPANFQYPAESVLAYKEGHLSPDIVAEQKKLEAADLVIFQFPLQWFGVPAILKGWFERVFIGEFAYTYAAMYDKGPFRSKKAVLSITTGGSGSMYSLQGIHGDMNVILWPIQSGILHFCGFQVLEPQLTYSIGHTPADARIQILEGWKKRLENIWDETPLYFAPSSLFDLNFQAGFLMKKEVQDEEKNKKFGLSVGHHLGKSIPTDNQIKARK
# ASSAY_COMMENT: Inhibition of human recombinant NQO1
pIC50: −log10 of the molar value.
RESULT_TYPE: pIC50

[[record]]
molecule = "Fc1ccccc1C1CC(c2ccc3ccccc3c2)=Nc2ccccc2S1 (stereo not given)"
result_type = "pIC50"
numeric_result = 6.41

[[record]]
molecule = "Oc1cc(O)cc(-c2c(O)cc(O)cc2O)c1"
result_type = "pIC50"
numeric_result = 5.00

[[record]]
molecule = "Oc1ccccc1C(=NNc1ccccc1)c1ccccc1O"
result_type = "pIC50"
numeric_result = 5.52

[[record]]
molecule = "COc1ccc(/C(C#N)=C\\c2cc(OC)c(OC)c(OC)c2)cc1"
result_type = "pIC50"
numeric_result = 4.40

[[record]]
molecule = "c1ccc2sc(-c3c4ccccc4cc4ccc5ccccc5c34)cc2c1"
result_type = "pIC50"
numeric_result = 5.96

